I'd appreciate it if you could supply MIC values for the items below.
System: Aspergillus fumigatus ATCC 13073
Assay Comment: microbe, parasite or virus in culture
Test Parameters: Aspergillus fumigatus, ATCC13073, 72 h, pH 7, read-out: MIC A. fumigatus

Item: `COc1ccc(-c2cc(C(=O)Nc3ccc4c(c3)OCCO4)c3ccccc3n2)c(OC)c1` | MIC: > 38 µM

Item: `Cc1c(-c2ccccc2)[o+]c2ccccc2c1C#Cc1ccccc1` | MIC: > 150 µM

Item: `COc1ccc(-c2cc(C(=O)Nc3ccc(C(C)C)cc3)c3ccccc3n2)c(OC)c1` | MIC: > 150 µM

Item: `COc1cccc(Nc2nc(Cl)nc(Nc3cccc(OC)c3)n2)c1` | MIC: > 150 µM

Item: `CCOc1ccc2nc3cc(NC(=O)c4cccc(Br)c4)ccc3c(N)c2c1` | MIC: > 75 µM

Item: CCCCOc1ccc(C2C(C#N)=C(N)Oc3cc(O)ccc32)cc1 (stereo not drawn) | MIC: > 150 µM

Item: `CCCCc1nc2sc3c(NCCCN(C)C)ncnc3c2c2c1CCCC2` | MIC: 75 µM

Item: `COc1ccc(Cn2c(SCc3cc(C)ccc3C)nc3cc(OC)c(OC)cc3c2=N)cc1` | MIC: > 150 µM

Item: CC1CCCCN1CC(O)Cn1c(-c2ccccc2)c(-c2ccccc2)c2ccc3ccccc3c21 (stereo not drawn) | MIC: > 38 µM

Data provenance: paper PMC5487681
